- tgt: T1, human Claudin18.2-His (Acro, CL2-H5546) (human, UniProt P56856-2 1-261)
- T1 construct: Bought reagent, amine-coupled to a CM5 chip; also called recombinant human CLDN18.2 protein; not shown: His tag
- procedure.details: SPR (Biacore T200), Claudin18.2-His coupled on CM5 chip, antibody in the mobile phase (avidity)
measure.name: koff (s⁻¹)
Kindly answer with a numeric value in s⁻¹, unit omitted.

For record Hz69H9-1.2 PG Ab (antibody, human IgG1, kappa, V domains shown, Mutant of the parent Hz69H9 with point mutations in VH or VL; also called H9-1.2 PG antibody) VH: QVQLVQSGAEVKKPGSSVKVSCKASGYSFSSYNIHWVRQAPGQGLEWMGYIAPFQGDARYNQKFKGRVTITADKSTSTAYMELSSLRSEDTAVYYCARLNRGQSLDYWGQGTLVTVSS VL: DIVMTQSPDSLAVSLGERATINCKSSQSLFNAGNQRNYLTWYQQKPGQPPKLLIYWASTRESGVPDRFSGSGSGTDFTLTISSLQAEDVAVYYCQNNYIYPLTFGGGTKVEIKR the listed koff is 0.00185

The values you see were collected from patent US20250009801A1.
